Subject Of Test: T1, human HER3-Fc (R&D Systems, 348-RB) (human, UniProt P21860 20-643)
T1 construct: Bought; also called hHER3-Fc; Fc-HER3; Fc part of the bought chimera not given, not described
Test: HRG competition alphascreen
Task for the reader: assign each of the following binders its reported % inhibition.
Answers are plain numbers, in %.

Binder: 21F06 (VHH, c-myc, His6-tagged form as expressed; also called 21F6; HER3MS21F06) VHH: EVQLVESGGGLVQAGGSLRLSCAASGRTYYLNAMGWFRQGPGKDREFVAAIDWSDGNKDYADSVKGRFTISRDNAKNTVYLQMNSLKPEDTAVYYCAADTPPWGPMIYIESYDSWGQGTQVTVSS
Outcome Measure: % inhibition
Value Unit: %
Endpoint Result: 104

For each entry beneath this line, provide reported % inhibition.
1. 34C07 (VHH, c-myc, His6-tagged form as expressed; also called 34C7; HER3MS34C07) VHH: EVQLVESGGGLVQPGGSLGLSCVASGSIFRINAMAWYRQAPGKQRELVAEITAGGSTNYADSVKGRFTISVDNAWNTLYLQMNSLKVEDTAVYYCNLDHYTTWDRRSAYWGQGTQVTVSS
2. 17B05 (VHH, also called HER3MS17B05; HER3MS017B05) VHH: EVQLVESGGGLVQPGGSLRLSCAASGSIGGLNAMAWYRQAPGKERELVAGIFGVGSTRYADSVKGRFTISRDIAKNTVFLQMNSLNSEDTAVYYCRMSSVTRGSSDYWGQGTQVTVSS
3. 04C07 (VHH, also called HER3MS04C07; HER3MS004C07) VHH: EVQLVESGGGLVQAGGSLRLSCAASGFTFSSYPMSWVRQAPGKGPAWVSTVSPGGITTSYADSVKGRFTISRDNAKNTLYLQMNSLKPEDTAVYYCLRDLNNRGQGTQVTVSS

Reply:
1: 65.2; 2: 87; 3: 86.7
